Target: UniProtKB O15151
Assay: Competitive fluorescence polarization assay for MDMX
Assay type: binding
Details: competitive FP assay, read-out: IC50 (MDMX)
Measurement label: IC50

Compound | Measured target | Result
CC(=O)N[C@@H](CC(C)C)C(=O)N[C@H](C(=O)N[C@@H](Cc1cccc(Cl)c1)C(=O)N[C@]1(C)CCCCCCC=CCCC[C@@](C)(C(=O)N[C@@H](CO)C(=O)N[C@@H](C)C(=O)N[C@@H](C)C(N)=O)NC(=O)[C@H](CC(C)C)NC(=O)[C@H](CCC(N)=O)NC(=O)[C@H](C)NC(=O)[C@H](Cc2c[nH]c3ccccc23)NC(=O)[C@H](Cc2ccc(O)cc2)NC(=O)[C@H](CCC(=O)O)NC1=O)[C@@H](C)O (single isomer, unassigned) [compound 156] | UniProtKB O15151 | 100 to 1000 nM

----------
Target: MDMX (Homo sapiens)
Sequence (O15151 1-125): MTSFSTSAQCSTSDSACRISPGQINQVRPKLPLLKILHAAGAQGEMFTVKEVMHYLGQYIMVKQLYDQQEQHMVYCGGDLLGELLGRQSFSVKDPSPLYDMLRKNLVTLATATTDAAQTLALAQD
Assay: Competitive fluorescence polarization assay for MDMX
Assay type: binding
Settings: competitive FP assay, read-out: IC50 (MDMX)
Where a SMILES comes first, the peptide text is derived from it. Bridges are numbered along the chain shown (N, C = ends). [ ]: non-standard residue; d: D form. R8 = C=CCCCCCC[C@@](C)(N)C(=O)O; S5 = C=CCCC[C@](C)(N)C(=O)O; Aib = CC(C)(N)C(=O)O

Compound | IC50
CC(=O)N[C@@H](Cc1ccccc1)C(=O)N[C@]1(C)CCCCCCC=CCCC[C@@](C)(C(=O)N[C@@H](Cc2c[nH]cn2)C(=O)NC(C)(C)C(=O)N[C@@H](C)C(=O)N[C@H](C)C(N)=O)NC(=O)[C@H](CC(C)C)NC(=O)[C@H](CCC(N)=O)NC(=O)[C@H](Cc2ccc(O)cc2)NC(=O)[C@H](Cc2c[nH]c3ccccc23)NC(=O)[C@H](Cc2ccc(O)cc2)NC(=O)[C@H](C)NC1=O [compound 42] (Ac-F[R8]AYWYQL[S5]H[Aib]A[dA]-NH2; staple 2-9) | 100 to 1000 nM

----------
Biological target: MDM2 (Homo sapiens, UniProt Q00987)
Sequence (Q00987 1-125): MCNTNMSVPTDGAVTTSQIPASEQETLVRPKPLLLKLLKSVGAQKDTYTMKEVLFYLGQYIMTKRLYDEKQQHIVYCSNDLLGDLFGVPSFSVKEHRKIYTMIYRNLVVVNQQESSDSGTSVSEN
Assay: Competitive fluorescence polarization assay for MDM2
Assay type: binding
Conditions: competitive FP assay, MDM2; read-out: Ki (MDM2)
Overview of recorded Ki for various compounds

Compound | Ki
CC(=O)N[C@@H](CC(C)C)C(=O)N[C@H](C(=O)N[C@@H](Cc1cccc(Cl)c1)C(=O)N[C@]1(C)CCCCCCC=CCCC[C@@](C)(C(=O)N[C@@H](CO)C(=O)N[C@@H](C)C(=O)N[C@@H](C)C(N)=O)NC(=O)[C@H](CC(C)C)NC(=O)[C@H](CCC(N)=O)NC(=O)[C@H](C)NC(=O)[C@H](Cc2c[nH]c3ccccc23)NC(=O)[C@H](Cc2ccc(O)cc2)NC(=O)[C@H](CCC(=O)O)NC1=O)[C@@H](C)O (single isomer, unassigned) | < 10 nM
CC(=O)N[C@@H](CC(C)C)C(=O)N[C@H](C(=O)N[C@@H](Cc1ccccc1)C(=O)N[C@]1(C)CCCCCCC=CCCC[C@@](C)(C(=O)N[C@@H](C)C(=O)N[C@@H](C)C(=O)N[C@H](C(=O)N[C@H](C)C(N)=O)C(C)C)NC(=O)[C@H](CC(C)C)NC(=O)[C@H](CCC(N)=O)NC(=O)[C@H](C)NC(=O)[C@H](Cc2c[nH]c3ccccc23)NC(=O)[C@H](Cc2ccc(O)cc2)NC(=O)[C@H](C)NC1=O)[C@@H](C)O (single isomer, unassigned) | < 10 nM

Data origin, for the record: patent US8927500B2
